Target: T1, hFc · flag · hPSMA (human, UniProt Q04609 44-750)
T1 construct: The order of the parts follows the printed label; also called human PSMA; h PSMA-Fc; not shown: human Fc (hFc); flag tag
T1 sequence (Q04609 44-750 limits assumed): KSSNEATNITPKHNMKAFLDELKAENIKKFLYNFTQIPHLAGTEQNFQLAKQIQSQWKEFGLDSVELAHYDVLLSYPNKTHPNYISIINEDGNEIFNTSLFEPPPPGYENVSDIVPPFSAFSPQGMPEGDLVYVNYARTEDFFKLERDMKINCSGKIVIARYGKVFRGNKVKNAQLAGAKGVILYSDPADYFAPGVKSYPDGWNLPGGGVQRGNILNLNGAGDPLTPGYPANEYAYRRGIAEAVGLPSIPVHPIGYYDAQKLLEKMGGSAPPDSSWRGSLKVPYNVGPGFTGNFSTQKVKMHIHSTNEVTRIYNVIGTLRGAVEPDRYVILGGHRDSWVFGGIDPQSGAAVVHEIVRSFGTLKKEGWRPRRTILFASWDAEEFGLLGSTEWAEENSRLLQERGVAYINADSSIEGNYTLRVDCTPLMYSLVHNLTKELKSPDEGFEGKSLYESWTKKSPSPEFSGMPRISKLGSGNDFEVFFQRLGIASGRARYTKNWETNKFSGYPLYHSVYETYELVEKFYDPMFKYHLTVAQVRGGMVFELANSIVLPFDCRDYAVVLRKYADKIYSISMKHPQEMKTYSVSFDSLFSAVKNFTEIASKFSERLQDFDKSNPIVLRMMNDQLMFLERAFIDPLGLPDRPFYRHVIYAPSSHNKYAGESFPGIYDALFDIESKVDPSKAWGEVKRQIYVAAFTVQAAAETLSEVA
Assay: BLI (OCTET), expression supernatants, hFc.flag.hPSMA
Recorded kon, one value per entry.
Only the number, expressed in M⁻¹ s⁻¹, is required.

INSERT INTO assay_data (binder, units, measured) VALUES
  ('anti-PSMA T56Q sdAb.6his (VHH) VHH: EVQLVESGGGLVQPGGSLTLSCAASRFMISEYSMHWVRQAPGKGLEWVSTINPAGQTDYAESVKGRFTISRDNAKNTLYLQMNSLKPEDTAVYYCDGYGYRGQGTQVTVSS', 'M⁻¹ s⁻¹', 822000);

Consider the additional binder presented here.
Incoming: Would you kindly share the measured kon for Anti-PSMA wt sdAb.6his (VHH, Tested as supernatant of Expi293 cells; also called parental sdAb; parental anti-PSMA single domain antibody) VHH: EVQLVESGGGLVQPGGSLTLSCAASRFMISEYSMHWVRQAPGKGLEWVSTINPAGTTDYAESVKGRFTISRDNAKNTLYLQMNSLKPEDTAVYYCDGYGYRGQGTQVTVSS ?
Outgoing: 877000

Source of measurements: patent US20180161428A1
